Assay: log P by HPLC on a reversed-phase column (C 18), EEC Directive 79/831 Annex V.A8
Type: physicochemical
Settings: acidic range, pH 2.7, 0.1% aqueous formic acid/acetonitrile; 55° C.
MEASURE_NAME: LOGP_HCOOH

Some solved entries appear below for comparison.
[[record]]
compound = "CCSc1cc(C(F)(F)F)cnc1-c1nc2cc(-n3cc(C(F)(F)F)cn3)ncc2n1C"
measure_name = "LOGP_HCOOH"
observed_value = 4.37

[[record]]
compound = "CCSc1ccccc1-c1nc2nc(C(F)(F)F)ncc2o1"
measure_name = "LOGP_HCOOH"
observed_value = 3.66

[[record]]
compound = "CCCSc1cc(C(F)(F)F)cnc1-c1nc2cc(C(F)(F)F)ncc2n1C"
measure_name = "LOGP_HCOOH"
observed_value = 3.94

[[record]]
compound = "Cn1c(-c2ccc(Cl)cc2S(C)(=O)=O)nc2cc(C(F)(F)F)ncc21"
measure_name = "LOGP_HCOOH"
observed_value = 2.39

[[record]]
compound = "CCSc1cccnc1-c1nc2cc(C(F)(F)C(F)(F)F)ncc2n1C"
measure_name = "LOGP_HCOOH"
observed_value = 2.98


1: CCSc1cc(C(F)(F)F)cnc1-c1nc2cc(C(F)(F)C(F)(F)F)ncc2n1C
2: CC[S+]([O-])c1cccnc1-c1nc2cc(C(F)(F)F)ncc2n1C (stereo not drawn)
Select the item with the higher value of LOGP_HCOOH from the options 1 and 2 listed. Answer by quoting the chosen item's label. 1

----------
Assay: log P by HPLC on a reversed-phase column (C 18), EEC Directive 79/831 Annex V.A8
Assay type: physicochemical
Conditions: neutral range, pH 7.8, 0.001 molar aqueous ammonium hydrogencarbonate/acetonitrile; 55° C.
MEASURE_NAME: LOGP_NEUTRAL

[[record]]
compound = "CCS(=O)(=O)CCS(=O)(=O)c1cc(C(F)(F)F)cnc1-c1nc2cc(C(F)(F)F)ncc2n1C"
observed_value = 2.67

[[record]]
compound = "Cn1c(-c2ccc(Cl)cc2S(C)(=O)=O)nc2cc(C(F)(F)F)ncc21"
observed_value = 2.34

[[record]]
compound = "CCS(=O)(=O)c1cc(C(F)(F)F)cnc1-c1nc2cc(-n3cnc(C(F)(F)F)c3)ncc2n1C"
observed_value = 2.84


I: CCS(=O)(=O)c1cc(C(N)=O)cnc1-c1nc2cc(C(F)(F)F)ncc2n1C
II: CC[S+]([O-])c1ccc(Cl)cc1-c1nc2cc(C(F)(F)F)ncc2n1C (centres unmarked)
III: CCS(=O)(=O)c1cc(C(F)(F)F)cnc1-c1nc2cc(-n3cc(C(F)(F)F)cn3)ncc2n1C
Sequence the entries by LOGP_NEUTRAL, beginning with the highest number. Note for the reader: the ranking is given by listing the labels in the order requested. III, II, I
(III: 3.73, II: 2.34, I: 1.56)

----------
Assay: log P by HPLC on a reversed-phase column (C 18), EEC Directive 79/831 Annex V.A8
Format: physicochemical
Conditions: neutral range, pH 7.8, 0.001 molar aqueous ammonium hydrogencarbonate/acetonitrile; 55° C.
MEASURE_NAME: LOGP_NEUTRAL

Some solved entries appear below for comparison.
[[record]]
molecule = "CCS(=O)(=O)c1cccnc1-c1nc2cc(C(F)(F)F)ncc2n1C"
observed_value = 1.92

[[record]]
molecule = "CCCSc1cc(C(F)(F)F)cnc1-c1nc2cc(C(F)(F)F)ncc2n1C"
observed_value = 3.86

[[record]]
molecule = "CCCS(=O)(=O)c1cc(C(F)(F)F)cnc1-c1nc2cc(C(F)(F)F)ncc2n1C"
observed_value = 3.32


1: CSc1cc(Cl)ccc1-c1nc2nc(C(F)(F)F)ncc2o1
2: Cn1c(-c2ccc(F)cc2[S+](C)[O-])nc2cc(C(F)(F)F)ncc21 (stereo not drawn)
3: CCS(=O)(=O)c1ccc(Cl)cc1-c1nc2cc(C(F)(F)F)ncc2n1C
Sequence the entries by LOGP_NEUTRAL, beginning with the highest number. Note for the reader: the ranking is given by listing the labels in the order requested. 1, 3, 2
